Measured values drawn from patent EP4361176A1 for this set.

EXPERIMENTAL SYSTEM: T1, human CTLA4 (soluble analyte of the Biacore assays of Reference Example 3-3) (human, UniProt P16410 36-161)
T1 construct: also called hCTLA4
T1 sequence: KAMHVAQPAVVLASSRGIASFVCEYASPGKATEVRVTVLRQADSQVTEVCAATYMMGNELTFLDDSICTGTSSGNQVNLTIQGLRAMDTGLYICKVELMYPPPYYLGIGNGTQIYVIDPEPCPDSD
PROTOCOL SUMMARY: SPR, 1000 nM CTLA4, per unit antibody, ATP 10 uM
ATTRIBUTE MEASURED: Binding to Human CTLA4
I'd appreciate a reply containing only the number, no unit.

A selection of reference data follows.
04H1077-G1m/04L1305-k0MT (antibody, human IgG1, kappa, V domains shown) VH: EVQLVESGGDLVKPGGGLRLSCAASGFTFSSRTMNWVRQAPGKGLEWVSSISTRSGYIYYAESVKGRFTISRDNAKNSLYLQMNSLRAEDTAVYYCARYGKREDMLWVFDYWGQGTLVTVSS VL: DIVMTQSPLSLPVTPGEPASISCDGPSTGVGDYNYVHWYQQKPGQAPRLLIYFTSKKPSGVPDRFSGSGSGTDFTLKISRVEAEDVGVYYCQTYAAPLGPMFGQGTKLEIKR : 0.128
04H1077-G1m/04L1034-lam1 (antibody, human IgG1, lambda, V domains shown) VH: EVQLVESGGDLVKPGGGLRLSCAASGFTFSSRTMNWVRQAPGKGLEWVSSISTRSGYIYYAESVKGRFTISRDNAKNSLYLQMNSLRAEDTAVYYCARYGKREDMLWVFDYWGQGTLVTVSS VL: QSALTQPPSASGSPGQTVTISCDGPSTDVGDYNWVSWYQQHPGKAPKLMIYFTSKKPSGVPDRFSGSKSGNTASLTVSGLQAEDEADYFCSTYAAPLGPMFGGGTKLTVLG : 0.041

API: the following record is the query input.
Recall and state the measured Binding to Human CTLA4 for 04H1077-G1m/04L1086-lam1 (antibody, human IgG1, lambda, V domains shown) VH: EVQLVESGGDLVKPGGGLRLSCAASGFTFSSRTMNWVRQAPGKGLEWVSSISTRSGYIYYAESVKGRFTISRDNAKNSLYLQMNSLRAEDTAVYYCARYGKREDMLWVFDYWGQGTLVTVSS VL: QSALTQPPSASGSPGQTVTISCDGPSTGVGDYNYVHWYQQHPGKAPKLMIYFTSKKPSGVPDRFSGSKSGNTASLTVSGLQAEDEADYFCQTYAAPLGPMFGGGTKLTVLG . 0.106
